# target-of-assay: human NaV1.8 (Homo sapiens (Human))
# Sequence (Q9Y5Y9 whole entry): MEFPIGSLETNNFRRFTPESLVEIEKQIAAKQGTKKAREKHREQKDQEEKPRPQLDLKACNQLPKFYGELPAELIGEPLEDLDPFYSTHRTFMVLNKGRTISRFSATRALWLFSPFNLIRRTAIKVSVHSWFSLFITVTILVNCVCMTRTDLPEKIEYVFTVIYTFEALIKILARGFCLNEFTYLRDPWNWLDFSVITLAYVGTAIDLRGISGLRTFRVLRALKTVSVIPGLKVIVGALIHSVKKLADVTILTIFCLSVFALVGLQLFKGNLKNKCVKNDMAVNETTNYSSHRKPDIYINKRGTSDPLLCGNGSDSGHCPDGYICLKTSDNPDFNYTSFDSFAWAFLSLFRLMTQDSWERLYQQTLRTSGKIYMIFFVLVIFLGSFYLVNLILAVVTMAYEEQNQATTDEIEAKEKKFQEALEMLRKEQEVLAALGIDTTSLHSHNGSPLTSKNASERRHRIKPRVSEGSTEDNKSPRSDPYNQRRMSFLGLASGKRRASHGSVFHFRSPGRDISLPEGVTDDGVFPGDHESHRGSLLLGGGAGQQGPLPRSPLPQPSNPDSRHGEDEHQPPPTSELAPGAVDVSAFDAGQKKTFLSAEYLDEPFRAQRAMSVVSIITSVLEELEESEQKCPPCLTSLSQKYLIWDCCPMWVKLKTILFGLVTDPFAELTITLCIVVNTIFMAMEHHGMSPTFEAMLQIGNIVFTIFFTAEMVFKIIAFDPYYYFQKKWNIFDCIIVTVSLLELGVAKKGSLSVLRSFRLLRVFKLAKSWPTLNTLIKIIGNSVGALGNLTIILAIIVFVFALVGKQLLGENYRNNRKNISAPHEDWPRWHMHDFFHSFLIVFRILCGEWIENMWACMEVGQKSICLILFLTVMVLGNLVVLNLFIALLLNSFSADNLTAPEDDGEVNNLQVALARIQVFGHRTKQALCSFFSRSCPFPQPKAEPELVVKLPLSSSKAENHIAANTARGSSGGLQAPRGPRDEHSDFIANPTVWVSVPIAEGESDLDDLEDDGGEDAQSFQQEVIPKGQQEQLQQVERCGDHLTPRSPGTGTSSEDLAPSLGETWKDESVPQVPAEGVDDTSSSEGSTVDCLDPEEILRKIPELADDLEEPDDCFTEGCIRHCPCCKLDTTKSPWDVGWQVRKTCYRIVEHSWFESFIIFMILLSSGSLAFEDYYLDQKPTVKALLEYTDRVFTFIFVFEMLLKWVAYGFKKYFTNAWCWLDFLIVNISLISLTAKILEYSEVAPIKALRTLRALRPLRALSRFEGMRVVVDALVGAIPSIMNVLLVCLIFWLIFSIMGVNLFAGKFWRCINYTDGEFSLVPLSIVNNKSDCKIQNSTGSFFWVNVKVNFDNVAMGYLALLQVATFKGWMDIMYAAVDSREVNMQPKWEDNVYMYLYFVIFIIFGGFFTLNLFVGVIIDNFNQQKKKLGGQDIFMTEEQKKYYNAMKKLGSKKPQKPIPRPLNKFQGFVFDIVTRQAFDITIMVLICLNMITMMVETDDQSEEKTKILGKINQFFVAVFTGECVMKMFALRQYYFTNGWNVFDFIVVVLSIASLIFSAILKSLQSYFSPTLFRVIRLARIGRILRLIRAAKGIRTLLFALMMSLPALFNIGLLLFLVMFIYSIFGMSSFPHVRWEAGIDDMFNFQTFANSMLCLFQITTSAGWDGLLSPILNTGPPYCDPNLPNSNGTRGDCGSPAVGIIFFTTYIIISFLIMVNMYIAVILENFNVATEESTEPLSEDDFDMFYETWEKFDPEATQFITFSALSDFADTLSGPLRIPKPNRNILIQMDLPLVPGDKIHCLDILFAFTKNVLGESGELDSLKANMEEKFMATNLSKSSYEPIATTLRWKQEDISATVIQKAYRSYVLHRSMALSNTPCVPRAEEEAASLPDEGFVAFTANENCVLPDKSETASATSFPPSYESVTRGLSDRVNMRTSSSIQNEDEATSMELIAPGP
# assay: Nav1.8 Qube automated patch-clamp assay
# Format: cell-based
# assay-conditions: human NaV1.8 stably expressed in HEK 293 cells; automated 384-well patch-clamp; resting or inactivated state not specified

molecule: O=C1NC[C@@H](C(=O)NC(c2ccc(F)c(Cl)c2)c2ccn(CC(F)(F)F)n2)N1 (single isomer, unassigned) [Example 28A]
target-of-assay: human NaV1.8 (Homo sapiens (Human))
IC50 [nM]: 633
--
molecule: O=C1NC[C@@H](C(=O)NC(c2ccc(F)c(Cl)c2)C2Cc3ccc(Cl)cc32)N1 (some centres unmarked)
target-of-assay: human NaV1.8 (Homo sapiens (Human))
IC50 [nM]: 44
--
molecule: O=C1NC[C@@H](C(=O)NC(c2ccc(F)c(Cl)c2)c2cc(C(F)(F)F)[nH]n2)N1 (single isomer, unassigned) [Example 4B]
target-of-assay: human NaV1.8 (Homo sapiens (Human))
IC50 [nM]: 6.2
--
molecule: O=C1NC[C@@H](C(=O)NC(CCc2ccc(Cl)cc2)c2ccc(F)c(Cl)c2F)N1 (single isomer, unassigned) [Example 52B]
target-of-assay: human NaV1.8 (Homo sapiens (Human))
IC50 [nM]: 4.3
--
molecule: O=C1NC[C@@H](C(=O)NC(c2cnc(OC(F)F)c(F)c2)c2ccc(F)c(Cl)c2F)N1 (single isomer, unassigned)
target-of-assay: human NaV1.8 (Homo sapiens (Human))
IC50 [nM]: 190

The reported numbers originate from patent US20230312528A1.
